Origin of the recorded values: ChEMBL document CHEMBL5620388

The entries below come with measured remaining at 0.5 h values attached.
test: Metabolic stability in CD-1 mouse liver microsome assessed as parent compound remaining after 30 mins by LC-MS/MS analysis; assay type: ADME; conditions: liver microsomes, read-out: Stability
attribute_measured: remaining at 0.5 h

1) O=C(NCCc1ccc(F)cc1)c1c[nH]c2c([N+](=O)[O-])cc(C(F)(F)F)cc2c1=O : 56%
2) O=C(NCCc1ccc(Cl)cc1)c1c[nH]c2c([N+](=O)[O-])cc(C(F)(F)F)cc2c1=O : 76%
3) O=C(NCCc1ccc(C(F)(F)F)cc1)c1c[nH]c2c([N+](=O)[O-])cc(C(F)(F)F)cc2c1=O : 67%
